tested.on: MHC-II DRB1*15:03 (Homo sapiens, UniProt P01903+P01911, Y59H)
Construct: purchased ProImmune
Sequence (P01903 26-254, other chains not shown): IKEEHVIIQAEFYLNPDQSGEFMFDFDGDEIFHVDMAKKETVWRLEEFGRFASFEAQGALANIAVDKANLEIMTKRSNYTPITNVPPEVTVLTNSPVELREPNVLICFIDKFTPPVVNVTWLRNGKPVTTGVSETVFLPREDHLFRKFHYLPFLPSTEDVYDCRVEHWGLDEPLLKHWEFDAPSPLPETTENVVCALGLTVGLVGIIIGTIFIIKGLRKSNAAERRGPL
measurement.notes: Cell-free REVEAL class II binding assay
condition.description: signal of test peptide as percentage of allele-specific positive control peptide, fluorescence, conformation-specific monoclonal antibody
Binding Score for assorted sequences
Answer format: numeric, % implied, no suffix.

Q: Query: Binding Score; subject: SGYTFKHKMVYEDTL [synthetic wild type FVIII 15 mer peptide]
Result: 0.0

Q: Query: Binding Score; subject: SYDGAYAPVLQDFRS [synthetic wild type FVIII 15 mer peptide, region of ns-SNP D1241E]
Result: 0.0

Q: Query: Binding Score; subject: LSTRQNVEGSYDGAY [synthetic wild type FVIII 15 mer peptide, region of ns-SNP D1241E]
Result: 0.0

Q: Query: Binding Score; subject: SDPRCLTRYYSSFVN [synthetic wild type FVIII 15 mer peptide]
Result: 13.8

----------
Binding Score for assorted sequences
tested.on: MHC-II DRB1*04:01 (Homo sapiens, UniProt P01903+P01911, A100K/A169T/F76Y/I96L/K127E/L162R/M171V/N62H/P40V/Q125Y/R42H/S133A/S149N/S66Y/V115G/V209L/W38E)
measurement.notes: Cell-free REVEAL class II binding assay
condition.description: signal of test peptide as percentage of allele-specific positive control peptide, fluorescence, conformation-specific monoclonal antibody
Please append the unit to your numeric answer.

Previously resolved entries follow.
sequence.record	result
LQVDFQKTMKVTGVT [synthetic wild type FVIII 15 mer peptide, region of ns-SNP M2238V]	11.6%
DVRPLYSRRLPKGVK [synthetic wild type FVIII 15 mer peptide, region of ns-SNP R484H]	0.2%
QKTMKVTGVTTQGVK [synthetic wild type FVIII 15 mer peptide, region of ns-SNP M2238V]	6.6%

Q: Query: Binding Score; subject: TVEDGPTKSDPRCLT [synthetic wild type FVIII 15 mer peptide]
Result: 0.2%

Q: Query: Binding Score; subject: SGYTFKHKMVYEDTL [synthetic wild type FVIII 15 mer peptide]
Result: 1.0%

----------
tested.on: MHC-II DRB1*03:01 (Homo sapiens, UniProt P01903+P01911, A100K/A102G/A103R/A169T/F55Y/I96L/K41T/L162R/M171V/P40S/Q125H/Q178H/Q39Y/R42S/S66N/T106N/T262R/W38E/Y61H)
Sequence (P01903 26-254 limits assumed, other chains not shown): as the sequence (P01903 26-254, other chains not shown) above
measurement.notes: Cell-free REVEAL class II binding assay
condition.description: signal of test peptide as percentage of allele-specific positive control peptide, fluorescence, conformation-specific monoclonal antibody
Binding Score for assorted sequences
Answer format: numeric, % implied, no suffix.

Previously resolved entries follow.
sequence.record	numeric.result
SGYTFKHKMVYEDTL [synthetic wild type FVIII 15 mer peptide]	1.3
RIHPQSWVHQIALRM [synthetic wild type FVIII 15 mer peptide]	0.0

Q: Query: Binding Score; subject: PLLTRYLRIHPQSWV [synthetic wild type FVIII 15 mer peptide]
Result: 0.0

Q: Query: Binding Score; subject: QKFSSLYISQFIIMY [synthetic wild type FVIII 15 mer peptide]
Result: 0.5

----------
Binding Score for assorted sequences
tested.on: MHC-II DRB1*15:03 (Homo sapiens, UniProt P01903+P01911, Y59H)
Construct: purchased ProImmune
measurement.notes: Cell-free REVEAL class II binding assay
condition.description: signal of test peptide as percentage of allele-specific positive control peptide, fluorescence, conformation-specific monoclonal antibody
Answer format: numeric, % implied, no suffix.

Previously resolved entries follow.
sequence.record	unit.annotation	Binding Score
PWFAHRTPMPKIQNV [synthetic wild type FVIII 15 mer peptide, region of ns-SNP R776G]	%	0.2
YTFKHKMVYEDTLTL [synthetic wild type FVIII 15 mer peptide]	%	0.0

Let's switch to this sequence now.
Q: Query: Binding Score; subject: GITDVRPLYSRRLPK [synthetic wild type FVIII 15 mer peptide, region of ns-SNP R484H]
Result: 2.6

Reference source: paper PMC3656107
